- Subject of test: CRM1 (Homo sapiens, UniProt O14980)
- Construct: HeLa cells stably expressing a fluorescent translocation biosensor (HeLaRevBio); endogenous in cells; host or cells: HeLa (HeLaRevBio in A7; HeLa in A8)
- Sequence (O14980 whole entry): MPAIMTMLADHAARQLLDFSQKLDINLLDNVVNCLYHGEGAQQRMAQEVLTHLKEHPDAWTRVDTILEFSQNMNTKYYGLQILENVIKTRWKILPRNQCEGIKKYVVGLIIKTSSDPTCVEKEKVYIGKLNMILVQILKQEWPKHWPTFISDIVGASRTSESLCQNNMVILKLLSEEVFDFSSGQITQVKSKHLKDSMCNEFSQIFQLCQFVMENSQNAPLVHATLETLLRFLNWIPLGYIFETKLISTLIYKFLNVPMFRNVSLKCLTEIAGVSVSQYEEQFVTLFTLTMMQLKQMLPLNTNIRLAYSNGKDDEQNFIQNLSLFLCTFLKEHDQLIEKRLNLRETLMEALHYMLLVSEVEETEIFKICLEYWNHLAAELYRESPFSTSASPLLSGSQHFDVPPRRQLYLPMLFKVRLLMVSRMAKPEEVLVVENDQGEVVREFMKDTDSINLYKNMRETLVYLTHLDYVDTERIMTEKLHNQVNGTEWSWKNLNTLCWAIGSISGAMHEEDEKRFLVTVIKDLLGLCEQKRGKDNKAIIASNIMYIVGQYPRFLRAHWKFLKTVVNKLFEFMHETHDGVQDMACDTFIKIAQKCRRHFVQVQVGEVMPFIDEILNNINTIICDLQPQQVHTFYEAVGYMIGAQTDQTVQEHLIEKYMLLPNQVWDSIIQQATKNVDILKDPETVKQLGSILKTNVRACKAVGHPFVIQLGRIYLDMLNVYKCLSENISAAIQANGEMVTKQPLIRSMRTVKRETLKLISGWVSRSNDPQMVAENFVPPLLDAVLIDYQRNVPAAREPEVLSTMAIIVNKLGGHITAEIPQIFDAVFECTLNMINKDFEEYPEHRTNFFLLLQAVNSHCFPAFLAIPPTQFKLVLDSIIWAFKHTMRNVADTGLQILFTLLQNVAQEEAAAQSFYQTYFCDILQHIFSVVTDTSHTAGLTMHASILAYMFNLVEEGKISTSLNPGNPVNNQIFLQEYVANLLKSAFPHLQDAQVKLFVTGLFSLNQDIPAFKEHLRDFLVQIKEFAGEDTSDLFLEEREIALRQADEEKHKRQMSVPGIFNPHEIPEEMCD
- Assay comment: Monitoring export inhibitory activity (translocation biosensor, HeLaRevBio cells)
- Type: cell-based
# log10 IC50 per record follows
Parameter value (number): base-10 log of IC50 in nM.

• C/C=C/[C@@H]1O[C@H]([C@H](/C=C/C=C(\C)C[C@@H](C)/C=C(C)\C=C\[C@H]2CC=CC(=O)O2)NC(=O)OCCc2cn(CCOCCOCCOCCNC(=O)CCCC[C@@H]3SC[C@@H]4NC(=O)N[C@@H]43)nn2)C[C@@H](O)[C@@H]1C [Biotin-PEG3-16S-Aminoratjadone] = 2.18

query: Supply log10 IC50 value. Item: C/C=C/[C@@H]1O[C@H]([C@@H](/C=C/C=C(\C)C[C@@H](C)/C=C(C)\C=C\[C@H]2CC=CC(=O)O2)NC(=O)OCCc2cn(CCC[C@H](NC(=O)[C@H](Cc3ccc(O)cc3)NC(=O)[C@H](CO)NC(=O)[C@H](Cc3c[nH]c4ccccc34)NC(=O)[C@H](Cc3c[nH]cn3)NC(=O)[C@@H]3CCC(=O)N3)C(=O)N[C@@H](CC(C)C)C(=O)N[C@@H](CCCNC(=N)N)C(=O)N3CCC[C@H]3C(=O)NCC(N)=O)nn2)C[C@@H](O)[C@@H]1C [L-Orn-LHRH-16R-Aminoratjadone]
result: 3.03

###

- Subject of test: CRM1 (Homo sapiens)
- Construct: HeLa cells stably expressing a fluorescent translocation biosensor (HeLaRevBio); endogenous in cells; host or cells: HeLa (HeLaRevBio in A7; HeLa in A8)
- Assay comment: Monitoring export inhibitory activity (translocation biosensor, HeLaRevBio cells)
- Format: cell-based
- Cond: HeLa cells stably expressing translocation biosensor, 1h of incubation; read-out: IC50 [nM] CRM1 (nuclear export inhibition)
Parameter class (string): assigned from measured IC50. Ranges: low bin: < 10 nM; mid bin: ≥ 10 nM and < 20 nM; high bin: ≥ 20 nM

* C/C=C/[C@@H]1O[C@H]([C@H](O)/C=C/C=C(\C)C[C@@H](C)/C=C(C)\C=C\[C@H]2CC=CC(=O)O2)C[C@@H](O)[C@@H]1C [Ratjadone A 1, reference compound] | low bin
* C/C=C/[C@@H]1O[C@H]([C@H](N)/C=C/C=C(\C)C[C@@H](C)/C=C(C)\C=C\[C@H]2CC=CC(=O)O2)C[C@@H](O)[C@@H]1C [16R-Amino-Ratjadone 11] | low bin
* C/C=C/[C@@H]1O[C@H]([C@@H](N)/C=C/C=C(\C)C[C@@H](C)/C=C(C)\C=C\[C@H]2CC=CC(=O)O2)C[C@@H](O)[C@@H]1C [16S-Amino-Ratjadone 12] | low bin
* C#CCCC(=O)N[C@H](/C=C/C=C(\C)C[C@@H](C)/C=C(C)\C=C\[C@H]1CC=CC(=O)O1)[C@@H]1C[C@@H](O)[C@H](C)[C@H](/C=C/C)O1 | high bin

query: Where would C/C=C/[C@@H]1O[C@H]([C@@H](/C=C/C=C(\C)C[C@@H](C)/C=C(C)\C=C\[C@H]2CC=CC(=O)O2)NC(=O)CCSSc2ccccn2)C[C@@H](O)[C@@H]1C land among the classes by reported IC50?
result: high bin

query: Where would C#CCCOC(=O)N[C@@H](/C=C/C=C(\C)C[C@@H](C)/C=C(C)\C=C\[C@H]1CC=CC(=O)O1)[C@@H]1C[C@@H](O)[C@H](C)[C@H](/C=C/C)O1 land among the classes by reported IC50?
result: mid bin

query: Where would C/C=C/[C@@H]1O[C@H](C(=O)/C=C/C=C(\C)C[C@@H](C)/C=C(C)\C=C\[C@H]2CC=CC(=O)O2)C[C@@H](O)[C@@H]1C land among the classes by reported IC50?
result: high bin

query: Where would C/C=C/[C@@H]1O[C@H]([C@H](O)/C=C/C=C(\C)C[C@@H](C)/C=C(C)\C=C\[C@H]2CC=CC(=O)O2)CC(=O)[C@@H]1C land among the classes by reported IC50?
result: mid bin

query: Where would C#CCNC1C[C@@H]([C@H](O)/C=C/C=C(\C)C[C@@H](C)/C=C(C)\C=C\[C@H]2CC=CC(=O)O2)O[C@@H](/C=C/C)[C@H]1C (some centres unmarked) land among the classes by reported IC50?
result: mid bin

query: Where would C/C=C/[C@@H]1O[C@H](C(=O)/C=C/C=C(\C)C[C@@H](C)/C=C(C)\C=C\[C@H]2CC=CC(=O)O2)CC(=O)[C@@H]1C land among the classes by reported IC50?
result: mid bin

query: Where would C#CCCOC(=O)N[C@H](/C=C/C=C(\C)C[C@@H](C)/C=C(C)\C=C\[C@H]1CC=CC(=O)O1)[C@@H]1C[C@@H](O)[C@H](C)[C@H](/C=C/C)O1 land among the classes by reported IC50?
result: high bin

###

# pIC50 per record follows
- Subject of test: CRM1 (Homo sapiens)
- Construct: HeLa cells stably expressing a fluorescent translocation biosensor (HeLaRevBio); endogenous in cells; host or cells: HeLa (HeLaRevBio in A7; HeLa in A8)
- Assay comment: Monitoring export inhibitory activity (translocation biosensor, HeLaRevBio cells)
- Assay type: cell-based
pIC50 here: minus log base 10 of the concentration, concentration in moles per litre.

// solved cases for pIC50 follow
- C/C=C/[C@@H]1O[C@H]([C@@H](/C=C/C=C(\C)C[C@@H](C)/C=C(C)\C=C\[C@H]2CC=CC(=O)O2)NC(=O)OCc2ccc(NC(=O)[C@H](CCCNC(N)=O)NC(=O)[C@@H](NC(=O)OC[C@@H]3[C@@H]4CCC#CCC[C@@H]43)C(C)C)cc2)C[C@@H](O)[C@@H]1C: 6.46
- C/C=C/[C@@H]1O[C@H]([C@H](/C=C/C=C(\C)C[C@@H](C)/C=C(C)\C=C\[C@H]2CC=CC(=O)O2)NC(=O)OC)C[C@@H](O)[C@@H]1C [16R-Amino-Ratjadone methyl carbamate 19]: 7.90

Now for another entry.
query: Would you please give the reported pIC50 of C/C=C/[C@@H]1O[C@H]([C@@H](/C=C/C=C(\C)C[C@@H](C)/C=C(C)\C=C\[C@H]2CC=CC(=O)O2)NC(=O)OC)C[C@@H](O)[C@@H]1C [16S-Amino-Ratjadone methyl carbamate 20] with CRM1 (Homo sapiens)?
result: 7.63
